assay: qHTS profiling of the MIPE4 collection as inhibitors of Plasmodium falciparum (HB3) proliferation (AID 743347); conditions: P. falciparum HB3 in erythrocytes, SYBR Green DNA, 72 h; at 28.5 µM (top of the series) unless noted
Values of growth, % of control strictly less than 9% map to Condition met, and values of at least 9% map to Condition not met.

Use the examples below as a reference point.
# COMPOUND, CLASS LABEL
rows = [
    ("CN(c1ncccc1CNc1nc(Nc2ccc3c(c2)CC(=O)N3)ncc1C(F)(F)F)S(C)(=O)=O", "Condition not met"),
    ("CC(C)c1cc(C(=O)N2Cc3ccc(CN4CCN(C)CC4)cc3C2)c(O)cc1O", "Condition met"),
    ("Cc1c(CN2CCN(S(C)(=O)=O)CC2)sc2c(N3CCOCC3)nc(-c3cnc(N)nc3)nc12", "Condition met"),
    ("NCC(=O)Nc1ccc(-n2nc(C(F)(F)F)cc2-c2ccc3c(ccc4ccccc43)c2)cc1", "Condition met"),
    ("CC(=O)SC[C@@H](C)C(=O)N1CCC[C@H]1C(=O)N[C@@H](Cc1ccccc1)C(=O)O", "Condition not met"),
    ("CNC(=O)c1nn(C)c2c1C(C)(C)Cc1cnc(Nc3ccc(N4CCN(C)CC4)cc3)nc1-2", "Condition met"),
    ("COc1ccc(C=Cc2cc(OC)c(OC)c(OC)c2)cc1O", "Condition not met"),
    ("COc1cc(C)c(Sc2cnc(NC(=O)c3ccc(CNC(C)C(C)C)cc3)s2)cc1C(=O)N1CCN(C(C)=O)CC1 (stereo unspecified)", "Condition met"),
    ("CC(C)(C)c1cnc(CSc2cnc(NC(=O)C3CCNCC3)s2)o1", "Condition not met"),
    ("COc1cc(-c2nn(C3CCC(N4CCN(C(C)=O)CC4)CC3)c3ncnc(N)c23)ccc1NC(=O)c1cc2ccccc2n1C (stereo unspecified)", "Condition met"),
]

Req: A record lists CC(C)Nc1cc(C(F)(F)F)cc2nc(NC(=O)c3cccnc3)nn12 . Is its growth, % of control below 9%?
Resp: Condition not met

Req: Item c1nc2nc(Nc3ccc(N4CCOCC4)cc3)nc(NC3CCCCC3)c2[nH]1 : growth, % of control beneath 9%, strictly?
Resp: Condition met

Req: Field: below-cutoff. Rule: recorded growth, % of control strictly less than 9%. Subject: Clc1ccc2ncc(-c3cccc(NC4CNC4)n3)n2c1
Resp: Condition met

Req: Does the reported growth, % of control of O=C1CCC[C@@H]2[C@H]3CCC[N+]4([O-])CCC[C@@H](CN12)[C@@H]34 (stereo partly specified) stay below 9%?
Resp: Condition not met

Req: Given the entry CCc1cc2c(cc1N1CCC(N3CCOCC3)CC1)C(C)(C)c1[nH]c3cc(C#N)ccc3c1C2=O , would its reported growth, % of control be below 9%?
Resp: Condition not met

Req: Given CC1(C)O[C@@H]2C[C@@H]3[C@H]4C[C@@H](F)C5=CC(=O)C=C[C@]5(C)[C@@]4(F)[C@@H](O)C[C@]3(C)[C@]2(C(=O)CO)O1 , is recorded growth, % of control strictly lower than 9%?
Resp: Condition not met

Req: Check if growth, % of control falls below 9% for COCCn1c2c([n+](Cc3cnccn3)c1C)C(=O)c1ccccc1C2=O .
Resp: Condition met

Req: Is it true that growth, % of control reported for COc1cc2c(Nc3ccc(NC(=O)c4ccccc4)cc3)ncnc2cc1OCCCN1CCOCC1 is less than 9%?
Resp: Condition met

Req: Regarding CNC(=O)c1cc(Oc2ccc(NC(=O)Nc3cc(C(C)(C)C)nn3-c3ccc4ncccc4c3)c(F)c2)ccn1 , kindly confirm whether its growth, % of control is beneath 9%.
Resp: Condition not met

Req: For Cc1c(Cn2c(C)nc3c(C(=O)O)cc(N4CCOCC4)cc32)cccc1C(F)(F)F , is the recorded growth, % of control below the cut-off of 9%?
Resp: Condition not met
